System: M. mycetomatis strain mm55
RECORDED_CONDITIONS: primary screen, metabolic activity vs growth control; 96 h, 2 µM; inhibitor
Structures can show the parent of a compound that is named as a salt. In all, about 5,300 compounds went through this assay and about 130 (2.5%) showed an effect of 50% or more. What follows is part of a selection rich in strong results, with near analogues and random picks from the rest.
Please note: % viability exactly at 80% is Criterion not met. Only values below 80% get Criterion met.

Field: example entries. Status: answers known.
| COMPOUND | ANSWER_LABEL |
| --- | --- |
| CSc1ccc([C@H]2CN3CCC[C@H]3c3ccccc32)cc1 | Criterion met |
| CC(C)n1c(/C=C/[C@@H](O)C[C@@H](O)CC(=O)O)c(-c2ccc(F)cc2)c2ccccc21 (racemic) [ONC0004817, fluvastatin sodium lescol] | Criterion not met |
| COc1ccc(/C=C2\CCCN=C2c2cccnc2)c(OC)c1 | Criterion met |

Lookup: Report whether reported % viability is lower than 80% (strictly) for CC[C@]1(O)C[C@H]2CN(CCc3c([nH]c4ccccc34)[C@@](C(=O)OC)(c3cc4c(cc3OC)N(C)[C@H]3[C@@](O)(C(N)=O)[C@H](O)[C@]5(CC)C=CCN6CC[C@]43[C@@H]65)C2)C1 [ONC0000288, vindesine sulfate]
Found: Criterion not met

Lookup: % viability strictly < 80% for this compound? CCCCC(F)(F)C(=O)CC[C@H]1[C@H](O)CC(=O)[C@@H]1CCCCCCC(=O)O
Found: Criterion not met
